# credit: the supplement of paper PMC10567573

B1: RAB40B (parent)
chain: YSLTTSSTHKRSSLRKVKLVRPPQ

variants of: B1; test: protein stability index of a GFP-peptide fusion (GPS, HEK-293T) (PSI 1-6); higher = more stable; conditions: c terminus: a fixed tail appended;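 further: lentivirally expressed fusions sorted by FACS into six bins by GFP to DsRed ratio, PSI derived from sequencing read proportions per bin multiplied by bin number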
# if value of protein stability index reaches 3, tag fulfilled; if it stays below, tag not fulfilled

- chain: "YSLTTSSTHKRSSLRKVMLVRPPQ"
  class_label: "not fulfilled"

Task item: Check the entry "YSLTTSSTHKRSSLRKVKLVRPPL" : does protein stability index equal or exceed 3?
Reply: not fulfilled

Task item: Item "YSLTTSSTHWRSSLRKVKLVRPPQ" with protein stability index of 3 or above?
Reply: not fulfilled

Task item: State whether the measured protein stability index reaches 3, counting equality as reaching it, for "YSLTTSSTHKRSSLRKWKLVRPPQ"
Reply: not fulfilled

Task item: Please tell me: is the variant "YSLTTSSTHKRSSLRKVKRVRPPQ" at or over 3 in terms of protein stability index?
Reply: fulfilled

Task item: Given the entry "YSLTTSSTHKRSSLRKVKLVVPPQ" , answer whether its protein stability index meets or surpasses 3.
Reply: not fulfilled

Task item: For this variant, is measured protein stability index 3 or higher? "FSLTTSSTHKRSSLRKVKLVRPPQ"
Reply: not fulfilled

Task item: Could you tell me if the measured protein stability index of "YSLSTSSTHKRSSLRKVKLVRPPQ" reaches 3 or more?
Reply: fulfilled

Task item: Reported protein stability index reaches at least 3 for "YSLTTSSTHKRSSLRKVKTVRPPQ" ?
Reply: fulfilled

Task item: Hello, I need to know if "YSSTTSSTHKRSSLRKVKLVRPPQ" has measured protein stability index not below 3. Thanks!
Reply: fulfilled

Task item: State whether the measured protein stability index reaches 3, counting equality as reaching it, for "YILTTSSTHKRSSLRKVKLVRPPQ"
Reply: not fulfilled

Task item: Does the variant "YSLTTGSTHKRSSLRKVKLVRPPQ" have recorded protein stability index that is 3 or more?
Reply: fulfilled
